Values were extracted from ChEMBL document CHEMBL3393015.

Bcl-xL/Bcl-2-like protein 11 (Homo sapiens, UniProt Q07817) pIC50 data
Sequence (Q07817 whole entry): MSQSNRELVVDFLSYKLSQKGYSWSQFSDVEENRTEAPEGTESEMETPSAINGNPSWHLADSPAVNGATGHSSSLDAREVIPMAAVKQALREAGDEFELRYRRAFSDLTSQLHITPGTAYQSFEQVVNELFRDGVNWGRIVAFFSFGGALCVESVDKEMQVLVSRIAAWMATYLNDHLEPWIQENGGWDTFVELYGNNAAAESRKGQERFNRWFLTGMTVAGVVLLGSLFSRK
Sequence (O43521 whole entry, further chain): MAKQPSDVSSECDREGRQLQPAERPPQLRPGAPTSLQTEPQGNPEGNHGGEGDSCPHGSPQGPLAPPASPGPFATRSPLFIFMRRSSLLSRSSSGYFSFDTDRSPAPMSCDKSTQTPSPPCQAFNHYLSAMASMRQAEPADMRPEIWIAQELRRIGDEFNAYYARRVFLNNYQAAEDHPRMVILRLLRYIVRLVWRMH
pIC50: −log10 of the molar value.
metric name: pIC50

[[record]]
structure_smiles_string = "O=C(O)Cn1cc(-c2ccc(C(=O)c3[nH]c(Cl)c(Cl)c3-n3c(C(=O)c4ccc(-c5cn(CC(=O)O)nn5)cc4O)cc(Cl)c3Cl)c(O)c2)nn1"
metric_name = "pIC50"
comparison_symbol = "<"
test_value = 4.30

[[record]]
structure_smiles_string = "O=C(c1ccccc1O)c1[nH]c(Cl)c(Cl)c1-n1c(C(=O)c2ccccc2O)cc(Cl)c1Cl"
metric_name = "pIC50"
comparison_symbol = "="
test_value = 4.79

[[record]]
structure_smiles_string = "O=C(c1ccccc1O)c1[nH]c(Cl)c(Cl)c1-n1c(C(=O)c2c(O)cccc2F)cc(Cl)c1Cl"
metric_name = "pIC50"
comparison_symbol = "="
test_value = 4.36

[[record]]
structure_smiles_string = "O=C(c1ccc(-c2cn(Cc3ccccc3)nn2)cc1O)c1[nH]c(Cl)c(Cl)c1-n1c(C(=O)c2ccc(-c3cn(Cc4ccccc4)nn3)cc2O)cc(Cl)c1Cl"
metric_name = "pIC50"
comparison_symbol = "="
test_value = 5.80

[[record]]
structure_smiles_string = "O=C(O)CSc1ccc(C(=O)c2[nH]c(Cl)c(Cl)c2-n2c(C(=O)c3ccc(SCC(=O)O)cc3O)cc(Cl)c2Cl)c(O)c1"
metric_name = "pIC50"
comparison_symbol = "<"
test_value = 4.00

[[record]]
structure_smiles_string = "O=C(c1cc(Cl)c(O)cc1O)c1[nH]c(Cl)c(Cl)c1-n1c(C(=O)c2cc(Cl)c(O)cc2O)cc(Cl)c1Cl"
metric_name = "pIC50"
comparison_symbol = "<"
test_value = 4.30

[[record]]
structure_smiles_string = "COc1ccccc1C(=O)c1[nH]c(Cl)c(Cl)c1-n1c(C(=O)c2ccc(Cl)cc2OC)cc(Cl)c1Cl"
metric_name = "pIC50"
comparison_symbol = "="
test_value = 5.02

[[record]]
structure_smiles_string = "CCOC(=O)Cn1cc(-c2cc(O)c(C(=O)c3[nH]c(Cl)c(Cl)c3-n3c(C(=O)c4cc(Cl)c(-c5cn(CC(=O)OCC)nn5)cc4O)cc(Cl)c3Cl)cc2Cl)nn1"
metric_name = "pIC50"
comparison_symbol = "<"
test_value = 4.00

